Kindly state EC50 for each of the entries shown.
# assay system: T1, NPA1 (influenza A virus A/Taiwan/1/72 (H3N2), UniProt P16982 1-489)
# T1 chain: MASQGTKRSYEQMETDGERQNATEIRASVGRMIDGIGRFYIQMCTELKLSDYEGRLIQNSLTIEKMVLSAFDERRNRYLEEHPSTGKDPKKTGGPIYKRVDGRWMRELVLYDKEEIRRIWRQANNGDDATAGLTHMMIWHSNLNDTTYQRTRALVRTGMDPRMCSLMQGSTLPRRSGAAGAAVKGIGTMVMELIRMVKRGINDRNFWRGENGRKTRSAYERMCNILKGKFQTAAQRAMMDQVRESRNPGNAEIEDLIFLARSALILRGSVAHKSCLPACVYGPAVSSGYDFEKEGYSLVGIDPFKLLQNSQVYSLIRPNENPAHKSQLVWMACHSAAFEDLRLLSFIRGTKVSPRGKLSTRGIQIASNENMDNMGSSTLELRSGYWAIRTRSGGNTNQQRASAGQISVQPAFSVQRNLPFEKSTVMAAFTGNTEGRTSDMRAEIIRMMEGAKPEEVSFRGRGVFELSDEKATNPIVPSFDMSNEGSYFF
# assay text: ELISA on recombinant NP
One number for each entry, in pM.

Which measured EC50 value corresponds to NP3 (antibody, V domains shown) VH: EVQLVESGGGLVQPGGSLRLSCAASGFTISNYGIHWVRQAPGKGLEWVAGIWPFGGFTSYADSVKGRFTISADTSKNTAYLQMNSLRAEDTAVYYCARFHWNDHGYMDYWGQGTLVTVSS VL: DIQMTQSPSSLSASVGDRVTITCRASQDVGWYVAWYQQKPGKAPKLLIYSTTGLYSGVPSRFSGSGSGTDFTLTISSLQPEDFATYYCQQYYNYPITFGQGTKVEIKR ?
90

Please give the measured EC50 for this binder: NP19 (antibody, V domains shown) VH: EVQLVESGGGLVQPGGSLRLSCAASGFTISSWGIHWVRQAPGKGLEWVAGIGPFWGYTSYADSVKGRFTISADTSKNTAYLQMNSLRAEDTAVYYCARFGVDNYGYMDYWGQGTLVTVSS VL: DIQMTQSPSSLSASVGDRVTITCRASQDVSGWVAWYQQKPGKAPKLLISWSTGLYSGVPSRFSGSGSGTDFTLTISSLQPEDFATYYCQQYFNFPVTFGQGTKVEIKR
110

Continuing:
Recorded EC50 of NP21 (antibody, V domains shown) VH: EVQLVESGGGLVQPGGSLRLSCAASGFTINGYGIHWVRQAPGKGLEWVAGIWPYGGSTFYADSVKGRFTISADTSKNTAYLQMNSLRAEDTAVYYCARFYNNHGGIMDYWGQGTLVTVSS VL: DIQMTQSPSSLSASVGDRVTITCRASQDVYFYVAWYQQKPGKAPKLLIYGSRWLYSGVPSRFSGSGSGTDFTLTISSLQPEDFATYYCQQYSNFPVTFGQGTKVEIKR , please.
120
